System: Plasmodium falciparum
procedureText: GSK_TCMDC: Inhibition of Plasmodium falciparum Dd2 in whole red blood cells, using parasite LDH activity as an index of growth. Test compounds present at 2uM
Type: functional
Flag rule - Inhibition less than 70% flags YES; the remaining entries get NO.

{"compound": "Oc1ccc(Br)cc1-c1nc2ccc(Cl)cc2nc1-c1cc(Br)ccc1O", "qualitativeLabel": "YES"}
{"compound": "O=C(/C=C/c1ccc(Cl)cc1)NCCCCCN1CCC(C(=O)Nc2ccc(Cl)c(Cl)c2)CC1", "qualitativeLabel": "YES"}
{"compound": "Cc1ccc(C(=O)Nc2ccc(Nc3ccnc4cc(-c5ccncc5)ccc34)cc2O)cc1", "qualitativeLabel": "NO"}
{"compound": "O=C(Cn1cc(C=C2SC(=NC3CCCC3)N(C3CCCC3)C2=O)c2ccccc21)N1CCCC1", "qualitativeLabel": "NO"}
{"compound": "CC(=O)Oc1c(Cl)c(C)nc(C)c1-c1ccc(Oc2ccc(Cl)cc2)cc1", "qualitativeLabel": "NO"}
{"compound": "O=C(Nc1cccc(C(F)(F)F)c1)c1cccc(S(=O)(=O)NCC2CCCN2CC2CCCCC2)c1.O=C(O)C(F)(F)F (centres undefined)", "qualitativeLabel": "YES"}
{"compound": "CC(=O)Nc1ccc(CN2CCC(CNC(=O)c3cc(-c4cccc(Cl)c4)cs3)C2)cc1.O=C(O)C(F)(F)F (centres undefined)", "qualitativeLabel": "YES"}
{"compound": "COc1cccc(-c2cc(C(=O)Nc3ccc4[nH]c(-c5ccccc5)nc4c3)[nH]n2)c1.O=C(O)C(F)(F)F", "qualitativeLabel": "YES"}
{"compound": "CCOC(=O)c1nc(-c2ccccc2)[nH]c1NC(=S)NC1CCCCC1", "qualitativeLabel": "YES"}
{"compound": "Nc1c(Cl)cc(C(O)CNCCCCCOCCc2ccc3occc3c2)cc1Cl (centres undefined)", "qualitativeLabel": "NO"}
{"compound": "O=C(Nc1ccc(OC2CCN(Cc3ccc(F)cc3)CC2)c(Cl)c1)c1ccoc1.O=C(O)C(F)(F)F", "qualitativeLabel": "NO"}
{"compound": "O=C(NCCc1ccc(F)cc1)c1ccc(N2CCN(c3ccncc3)CC2)nc1.O=C(O)C(F)(F)F", "qualitativeLabel": "YES"}
{"compound": "Cc1cnc(CN(Cc2ccc(-c3ccc(CNCCc4ccc(S(C)(=O)=O)cc4)cn3)cc2)C(=O)c2ccc([N+](=O)[O-])c(C)c2)cn1.O=C(O)C(F)(F)F", "qualitativeLabel": "YES"}
{"compound": "CCOc1ccc2c(=NN=Cc3cccc(OC)c3OC)cc(C)[nH]c2c1", "qualitativeLabel": "NO"}

* * *

Measured Inhibition of individual entries
System: Plasmodium falciparum
procedureText: GSK_TCMDC: Inhibition of Plasmodium falciparum Dd2 in whole red blood cells, using parasite LDH activity as an index of growth. Test compounds present at 2uM
Type: functional
recordedMetric: Inhibition (%)

{"compound": "COc1ccc(-c2cc(-c3nc4cc(C(=O)N5CCOCC5)ccc4[nH]3)c(=O)n(C)c2)cc1OC.O=C(O)C(F)(F)F", "recordedMetric": "Inhibition", "unitsLabel": "%", "endpointResult": 95}
{"compound": "Cc1ccc(NC(=O)c2cn(-c3ccccc3)nc2-c2ccc(F)cc2)cc1[N+](=O)[O-]", "recordedMetric": "Inhibition", "unitsLabel": "%", "endpointResult": 38}
{"compound": "COc1cccc(C2C(C(=O)Nc3ccccc3)=C(C)N=c3sc(=Cc4ccc(O)cc4)c(=O)n32)c1 (stereo not given)", "recordedMetric": "Inhibition", "unitsLabel": "%", "endpointResult": 97}
{"compound": "COc1ccc2c(c1CCNCCCCNCCc1c(OC)ccc3c1CCCC3)CCCC2.CS(=O)(=O)O", "recordedMetric": "Inhibition", "unitsLabel": "%", "endpointResult": 25}
{"compound": "Cl.N#Cc1ccc2c(c1)CCN(CCC1CCC(Nc3ncnc4ccccc34)CC1)C2 (stereo not given)", "recordedMetric": "Inhibition", "unitsLabel": "%", "endpointResult": 96}
{"compound": "CCc1c(CCNCC/C=C/CCNCCc2ccc(OC)c(OC)c2CC)ccc(OC)c1OC.Cl", "recordedMetric": "Inhibition", "unitsLabel": "%", "endpointResult": 7}
{"compound": "CCOc1cc(C(=O)Nc2ccc(-c3nc4ccccc4[nH]3)cc2)cc(OCC)c1OCC", "recordedMetric": "Inhibition", "unitsLabel": "%", "endpointResult": 94}
{"compound": "CCc1cn2c3c(cc(C(=O)N[C@@H](Cc4ccccc4)[C@H](O)CNC4CCOCC4)cc13)N(C)S(=O)(=O)C2.O=CO", "recordedMetric": "Inhibition", "unitsLabel": "%", "endpointResult": 98}
{"compound": "O=C(Cc1ccc(NC(=O)c2ccc(O)c(-c3ccc(Cl)c(Cl)c3)c2)cc1)NCCc1ccc(Cl)c(Cl)c1", "recordedMetric": "Inhibition", "unitsLabel": "%", "endpointResult": 88}
{"compound": "COCCOc1ccc(Nc2nccc(-c3c(-c4cccc(NC(=O)c5c(F)cccc5F)c4)nn4ccccc34)n2)cc1Cl", "recordedMetric": "Inhibition", "unitsLabel": "%", "endpointResult": 97}
{"compound": "N=C(N)Nc1nc(-c2ccc(NC(=O)Nc3cccc(-c4csc(NC(=N)N)n4)c3)cc2)cs1", "recordedMetric": "Inhibition", "unitsLabel": "%", "endpointResult": 80}
{"compound": "CC(C)c1ccc(OCC(O)CN(CCN2CCOCC2)C(=O)Nc2ccc(Br)cc2)cc1.O=C(O)C(F)(F)F (stereo not given)", "recordedMetric": "Inhibition", "unitsLabel": "%", "endpointResult": 44}
{"compound": "N#Cc1ccc(-c2ccc(C(=O)NCCCCN3CCC(c4nc5ccccc5[nH]4)CC3)cc2)cc1", "recordedMetric": "Inhibition", "unitsLabel": "%", "endpointResult": 13}
{"compound": "COc1c(I)cc(Cc2cnc(N)nc2N)cc1I", "recordedMetric": "Inhibition", "unitsLabel": "%", "endpointResult": 0}
{"compound": "Cl.N=C(NCCc1ccc(Cl)c(Cl)c1)c1ccc2ccccc2c1", "recordedMetric": "Inhibition", "unitsLabel": "%", "endpointResult": 29}
{"compound": "CC(C)NCc1ccc(-c2cccc(-c3nc4cc(C(F)(F)F)ccc4[nH]3)c2)cc1.O=C(O)C(F)(F)F", "recordedMetric": "Inhibition", "unitsLabel": "%", "endpointResult": 100}
{"compound": "CCNc1cc(C(=O)N[C@@H](Cc2ccccc2)[C@H](O)CNC(C)(C)Cc2ccccc2)cc(N2CCCC2=O)c1.O=CO", "recordedMetric": "Inhibition", "unitsLabel": "%", "endpointResult": 78}
{"compound": "CS(=O)(=O)CCCNCc1ccc(-c2cc3c(Nc4ccc(OCc5ccccc5)cc4)ncnc3cn2)o1", "recordedMetric": "Inhibition", "unitsLabel": "%", "endpointResult": 16}
{"compound": "O=C(O)C(F)(F)F.c1cc(CNCCc2ccncc2)cc(-c2cccc(-c3nc4ccccc4[nH]3)c2)c1", "recordedMetric": "Inhibition", "unitsLabel": "%", "endpointResult": 88}
{"compound": "COc1ccc2ccccc2c1C=NN=c1cc(C)[nH]c2cc(C(F)(F)F)ccc12", "recordedMetric": "Inhibition", "unitsLabel": "%", "endpointResult": 4}
{"compound": "CC(C)(CNC(=O)C1CCN(Cc2ccoc2)CC1)c1nc(-c2ccc(Cl)c(O)c2)c(-c2ccncc2)[nH]1.Cl", "recordedMetric": "Inhibition", "unitsLabel": "%", "endpointResult": 66}
{"compound": "COc1ccc(CNCCCCCNCc2ccc(Cl)c(Cl)c2)cc1Cl", "recordedMetric": "Inhibition", "unitsLabel": "%", "endpointResult": 43}
{"compound": "COc1ccc2ncc(F)c([C@@H](O)CN3CCC(NCc4cc5c(cn4)OCS5)CC3)c2c1.Cl", "recordedMetric": "Inhibition", "unitsLabel": "%", "endpointResult": 98}
{"compound": "CCN(CCN(C)C)Cc1ccc(-c2ccc(NS(=O)(=O)c3cccc4cccnc34)cc2)cc1.O=C(O)C(F)(F)F", "recordedMetric": "Inhibition", "unitsLabel": "%", "endpointResult": 57}
{"compound": "COc1ccc2c(CNCCCCCCNCc3c(OC)ccc4cc(OC)ccc34)c(OC)ccc2c1.CS(=O)(=O)O", "recordedMetric": "Inhibition", "unitsLabel": "%", "endpointResult": 79}

* * *

Tested on: Plasmodium falciparum
procedureText: GSK_TCMDC: Inhibition of Plasmodium falciparum Dd2 in whole red blood cells, using parasite LDH activity as an index of growth. Test compounds present at 2uM
Assay type: functional

{"structureNotation": "Cl.Nc1c2c(nc3ccc(NC(=O)Cc4ccccc4)cc13)CCCC2", "unitsLabel": "%", "Inhibition": 0}
{"structureNotation": "O=C(O)C(F)(F)F.c1ccc(CNCc2cccc(-c3csc(-c4nc5ccccc5[nH]4)c3)c2)cc1", "unitsLabel": "%", "Inhibition": 54}
{"structureNotation": "CCCCNC(=O)[C@H](CC1CCCCC1)NC(=O)c1ccc(O)c(-c2ccc(OC)cc2)c1", "unitsLabel": "%", "Inhibition": 12}
{"structureNotation": "Cc1[nH]c2ccc(O)cc2c1C1CCN(CCCCCNC(=O)/C=C/c2ccc(Cl)c(Cl)c2)CC1", "unitsLabel": "%", "Inhibition": 1}
{"structureNotation": "CCCN(CCC)C(=O)c1cc(C(=O)N[C@@H](Cc2ccccc2)[C@H](O)CNCc2cccc(C(F)(F)F)c2)cc(N2CCCCS2(=O)=O)c1", "unitsLabel": "%", "Inhibition": 74}
